Biological target: T1, Human SIRPαV1 (NP_542970.1), Extracellular Domain + His-Tag (human, UniProt P78324 31-373)
T1 construct: also called huSIRPαV1; hSIRPαV1; not shown: His-Tag
T1 sequence (P78324 other isoform, or with tags, fused parts or gaps): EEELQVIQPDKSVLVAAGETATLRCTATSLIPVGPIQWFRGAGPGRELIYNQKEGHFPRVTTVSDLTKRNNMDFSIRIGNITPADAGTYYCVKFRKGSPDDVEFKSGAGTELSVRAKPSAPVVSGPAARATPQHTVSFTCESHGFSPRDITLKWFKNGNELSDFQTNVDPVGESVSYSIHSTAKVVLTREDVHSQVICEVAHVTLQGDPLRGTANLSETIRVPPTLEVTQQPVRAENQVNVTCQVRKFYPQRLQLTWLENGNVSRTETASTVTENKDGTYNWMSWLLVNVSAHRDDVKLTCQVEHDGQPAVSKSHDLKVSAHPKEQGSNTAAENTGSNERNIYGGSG
Assay: SPR, antibody captured on Protein A/G, ECD-His analyte, 1:1 fit
Procedure: The binding kinetics of anti-SIRPα antibodies to various SIRPα analytes are determined by surface plasmon resonance (SPR) using a Biacore 8K+(Cytiva). 1×HBS-EP+(Cytiva) is used as running buffer and for all the dilutions unless stated otherwise. […]
Measurement type: koff (s⁻¹)
State just the number; it will be interpreted in s⁻¹.

Consider the following illustrative entries.
Antibody E7 (antibody, human IgG1, kappa, L234A L235A, V domains shown) VH: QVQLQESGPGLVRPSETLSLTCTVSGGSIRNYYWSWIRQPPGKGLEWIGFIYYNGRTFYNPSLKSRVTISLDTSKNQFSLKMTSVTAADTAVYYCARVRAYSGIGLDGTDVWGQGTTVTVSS VL: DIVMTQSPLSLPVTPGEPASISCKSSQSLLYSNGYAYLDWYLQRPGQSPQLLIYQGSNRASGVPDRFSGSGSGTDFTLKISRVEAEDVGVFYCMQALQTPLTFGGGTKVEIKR | 0.000453
Antibody A1 (antibody, human IgG1, kappa, L234A L235A, V domains shown) VH: EVQLVESGGGLVQPGGSLRLSCAASGFTLSSYDMHWVRQAPGKGLEWVSAIGTAGDTYYTGSVKGRFTISRENAKNSLYLQMNSLRADDTAVYYCVRGGVWDDAFDIWGQGTMVTVSS VL: DIQMTQSPSSLSASVGDRVTITCRASQGINNYAAWFQQKPGKAPKSLIYTASSLHSGVPSKFSGSGSGTDFTLTISSLQPEDFATYYCQQYVSYPYTFGQGTKLEIKR | 0.00625

Q: Need koff, item Antibody A13 (antibody, human IgG1, kappa, L234A L235A, V domains shown) VH: EVQLVESGGGLVQPGGSLRLSCAASGFTLSSYDMHWVRQAPGKGLEWVSAIGTAGDTYYTGSVKGRFTISRENAKNSLYLQMNSLRAADTAVYYCVRGGVWDDAFDIWGQGTMVTVSS VL: DIQMTQSPSSLSASVGDRVTITCRASQDINNYLAWFQQKPGKAPKSLIYTASSLHSGVPSKFSGSGSGTDFTLTISSLQPEDFATYYCQQYVSYPYTFGQGTKLEIKR
Result: 0.00352

Where these numbers come from: patent US20230012273A1
